test system: OVCAR-5 ovarian; assay: NCI-60 one-dose screen, 48 h (100 = growth as untreated, 0 = no growth, -100 = all killed); conditions: 10 µM unless noted
This is part of a sample that, as a whole, favours compounds with a hit. Of some 83,000 tested, about 20% had one in any assay.
Strictly below 90% in growth: True. Otherwise: False.

Example entries and their recorded answers appear below.
{"smiles.structure": "COc1ccc(/C(C)=C(\\c2ccc(Cl)cc2)c2ccc(OCCCN(C)C)cc2)cc1F", "assigned.class": "True"}
{"smiles.structure": "CN1CCN(c2ccc3nc(/N=C/c4ccc5sc(-c6ccc([N+](=O)[O-])cc6)nc5c4)sc3c2)CC1", "assigned.class": "False"}
{"smiles.structure": "Cc1nn(Cc2ccccc2)cc1C(=O)Nc1sc2c(c1C(N)=O)CCC(=O)C2", "assigned.class": "True"}
{"smiles.structure": "Cc1ccc(S(=O)(=O)Nc2sccc2-c2nc(-c3ccccc3)no2)cc1", "assigned.class": "True"}

Shift focus to the following entry.
Request: Hello, I'm reviewing records and need to know if growth of CCN(CC)CC(=O)Nc1cccc(C(=O)OC(C)C)c1 is below 90%. Could you check?
Response: False

###

# growth per entry
tested on: NCI/ADR-RES ovarian; test: NCI-60 one-dose screen, 48 h (100 = growth as untreated, 0 = no growth, -100 = all killed); settings: 10 µM unless noted
The panel holds about 83,000 compounds, 20% with a hit somewhere; the sample as a whole holds those more often. The source made the active and inactive calls. The calls were made as follows: active = growth percent below 10; inactive = the rest.

{"compound": "COc1ccccc1NC(=O)Nc1ccc(-c2nc3ccccc3o2)cc1", "meas.value": "98.4% (inactive)"}

Just so you know, measured growth for NC(=Nc1ccc(N)cc1)C(N)=Nc1ccc(N)cc1 came out at 99.6% (inactive)

Just so you know, measured growth for NS(=O)(=O)Oc1ccc(-c2sc3cc(O)ccc3c2C(=O)c2ccc(OCCN3CCCCC3)cc2)cc1 came out at 80.4% (inactive)

Just so you know, measured growth for CCNCCNc1cc(-c2cccc(C(F)(F)F)c2)c(C#N)c2nc3ccccc3n12 came out at -55% (active)

Just so you know, measured growth for CS(=O)(=O)c1ccc(-c2nc3cc(Cl)ccc3n2CC(=O)NO)cc1 came out at 108% (inactive)

Just so you know, measured growth for CCOC(=O)c1c(C)[nH]c(C(=O)CCC(=O)OC)c1C came out at 97.9% (inactive)

Just so you know, measured growth for N#Cc1cnn2c(-c3ccc(Cl)cc3)nc(NC3CC3)nc12 came out at 98.8% (inactive)

Just so you know, measured growth for O=c1oc2ccc(Cl)cc2cc1-c1cs/c(=N/N=C\c2ccc(Cl)cc2)n1/N=C/c1ccc(Cl)cc1 came out at 106% (inactive)

Just so you know, measured growth for CCCCCCCCn1cc(C2=C(c3coc4ccc(OC)cc34)C(=O)NC2=O)c2ccccc21 came out at 101% (inactive)

###

system: MALME-3M melanoma; experiment: NCI-60 one-dose screen, 48 h (100 = growth as untreated, 0 = no growth, -100 = all killed); conditions: 10 µM unless noted
About 83,000 compounds went through this panel and 20% of them were active in at least one assay; those are over-represented in the sample as a whole.
# growth per entry
Reply with just the number (in %).

Example results:
{"compound": "CC(=O)NCC(=O)Nc1ccc(-c2nnc3ccccn23)nc1.CC(=O)NCC(=O)Nc1ccc(-c2nnc3ccccn23)nc1.[Pt+2]", "target.or.test.system": "MALME-3M melanoma", "output.unit": "%", "growth": 105}
{"compound": "Clc1ccc2c(NCCCN3CCN(c4nc(-n5ccnc5)nc5ccccc45)CC3)ccnc2c1", "target.or.test.system": "MALME-3M melanoma", "output.unit": "%", "growth": -83.2}
{"compound": "CCN(CC)CCOC(=O)Nc1ccccc1Cl", "target.or.test.system": "MALME-3M melanoma", "output.unit": "%", "growth": 95.7}
{"compound": "CC(C)(C)OC(=O)N1Cc2cc3ccccc3nc2C1CO (stereo unspecified)", "target.or.test.system": "MALME-3M melanoma", "output.unit": "%", "growth": 120}
{"compound": "CN(CCCCCCCCNc1ccnc2ccccc12)Cc1ccc(-c2ccc(-c3ccc(C#N)cc3)s2)cc1", "target.or.test.system": "MALME-3M melanoma", "output.unit": "%", "growth": -80.7}

Just so you know, measured growth for CC(C)OC(=O)OCOP(=O)(OCOC(=O)OC(C)C)C1CCCN(O)C1=O (stereo unspecified) came out at 41.1

Just so you know, measured growth for CCNCCNc1cc(-c2ccc(C(F)(F)F)cc2)c(C#N)c2nc3cc(Cl)c(Cl)cc3n12 came out at -77.9

Just so you know, measured growth for C=C(C)[C@@H]1CC[C@]2(CN)CC[C@]3(C)[C@H](CC[C@@H]4[C@@]5(C)CCC(N)[C@@](C)(CO)[C@@H]5CC[C@]43C)[C@@H]12 (stereo partly specified) came out at -85.9

Just so you know, measured growth for CC1(C)C(=O)/C(=C\c2cccnc2)C[C@]2(C)[C@H]3CC=C4[C@@H]5C[C@@](C)(C(=O)O)CC[C@]5(C)CC[C@@]4(C)[C@]3(C)CC[C@@H]12 came out at 126

Just so you know, measured growth for CN1CCC(=C2c3ccccc3C=Cc3ccccc32)CC1 came out at 105

Just so you know, measured growth for Cc1ccc(S(=O)(=O)NN/C(N)=N\S(=O)(=O)c2cc(C)c(Cl)cc2SCc2ccccc2)cc1 came out at 76.1

Just so you know, measured growth for CCOC(=O)c1c(C)[nH]c(C(=O)CCC(=O)OC)c1C came out at 98.7

Just so you know, measured growth for Cc1nc2ccc(C(=O)NCc3cc(C(=O)O)c(C)o3)cc2nc1C came out at 93.4
